tested on: HL-60(TB) leukemia; assay: NCI-60 one-dose screen, 48 h (100 = growth as untreated, 0 = no growth, -100 = all killed); conditions: 10 µM unless noted
This is part of a sample that, as a whole, favours compounds with a hit. Of some 83,000 tested, about 20% had one in any assay.
Recorded growth determines the group label, using lower range (below 30%), middle range (30% to below 80%), upper range (80% or more)

Compound	Answer label
CCOc1ccc2[nH]c(=O)c(C(c3nnnn3CC3CCCO3)N3CCN(Cc4ccccc4)CC3)cc2c1 (configuration not stated)	upper range
COc1cc2oc(-c3cccc(NC(=O)[C@H](Cc4ccccc4)NC(=O)OC(C)(C)C)c3)cc(=O)c2c(OC)c1OC	lower range
CC[C@]12C=CCN3CC[C@@]4(c5ccc(OC)cc5N(C)[C@H]4[C@@](O)(C(=O)OC)[C@@H]1OC(=O)CCCC[P+](c1ccc(F)cc1)(c1ccc(F)cc1)c1ccc(F)cc1)[C@@H]32	lower range
O=C(c1ccc(Cl)cc1)C1[C@H](c2ccccc2Cl)[C@@H](c2ccccc2)NC12C(=O)Nc1ccccc12 (some centres not stated)	lower range
Cc1ccc2c(c1)nc(-c1ccccc1)n2CC(=O)N=Nc1c(O)[nH]c2ccc(Br)cc12	lower range
COc1cccc(/C=C/c2nc3ccccc3c(=O)n2CC(=O)Nc2ccc(Cl)cc2)c1	upper range
CN(CCF)c1ccc(/C=C/C(=O)c2ccc(N)cc2O)cc1	middle range
N#C/C(=C1/C(=O)Nc2ccccc21)c1nnc(NC(=O)c2ccc(-n3c(=O)[nH]c4ccccc4c3=O)cc2)s1	lower range
O=c1[nH]c2ccccc2cc1CSc1cccc(Nc2nccc(-c3ccc4ccccc4c3)n2)c1	upper range
Cc1cc2nc3c4ccccc4n(CCO)c3nc2cc1C	upper range
CC1(c2ccccc2)NC(=O)N(CC(=O)Nc2ccc(C(=O)/C=C/C=C/c3ccccc3)cc2)C1=O (configuration not stated)	middle range
CC12CC[C@@H]3[C@]4(C)COC(c5cn[nH]c5-c5ccc(Cl)cc5)O[C@@H]4CC[C@@]3(C)[C@@H]1CC(C1=CCOC1=O)O2 (some centres not stated)	lower range
COc1cc(NC(=O)CSc2nnc(-c3ccc4nc(-c5ccc(Cl)cc5)[nH]c4c3)o2)cc(OC)c1OC	middle range
COc1ccc2[nH]c(=O)c(CSc3ccccc3Nc3nccc(-c4ccc5c(c4)OCO5)n3)cc2c1	middle range
Cc1cc(C)nc(/N=C(\N)Nc2ccc(S(=O)(=O)Nc3nc(C)cc(C)n3)cc2)n1	upper range
CCCSc1nc(NCCc2c[nH]c3ccccc23)c(C#N)c(-c2ccccc2)n1	middle range
O=C(COc1ccc(NC(=O)Nc2ccccc2)cc1)N=Nc1c(O)[nH]c2ccc([N+](=O)[O-])cc12	lower range
O=C(c1ccc(Cl)cc1)C1[C@H](c2ccccc2Br)[C@@H](c2ccccc2)NC12C(=O)Nc1ccc(Cl)cc12 (some centres not stated)	middle range
CCCCCCCCc1ccc(C(=O)Nc2ccc(C)cc2C(=O)O)cc1C	upper range
CCCCc1c(Nn2cnnn2)no[n+]1[O-]	middle range
O=C(Cc1ccc2c(c1)CN(C1CCC(=O)NC1=O)C2=O)NCCc1ccccc1 (configuration not stated)	lower range
Nc1cc2ccccc2c(=O)n1NC(=O)c1ccccc1	upper range
O=C(CSc1nc2c(c(=O)[nH]1)CCCC2)Nc1ccccc1C(=O)O	upper range
CN1CCN(Cc2ccc(C(=O)Nc3cccc(Nc4ccc5cc(O)ccc5n4)c3)cc2C(F)(F)F)CC1	lower range
COC(=O)/C=C/c1cccc2c1C(=O)NC(C)(c1cc3ccccc3oc1=O)N2 (configuration not stated)	middle range
CCOC(=O)C1=C(Nc2ccccc2)C(=O)OC12C(=O)Nc1ccccc12 (configuration not stated)	upper range
O=C(Cn1nc(-c2ccccc2)ccc1=O)NNC(=S)NC1CCCCC1	upper range
O=C1Nc2ccc(Cl)cc2/C1=C/c1ccc(OCc2ccccn2)cc1	upper range
C=CC[n+]1cccc2c3ccccc3ccc21	middle range
O=c1oc2ccc(-c3ccc(F)cc3F)cc2c(=O)n1-c1ccc(F)c(Cl)c1	lower range
COCOc1ccc2c(=O)c(C)c(C(=O)N[C@@H](Cc3ccccc3)C(O)C(=O)NCCc3ccc(OC)cc3)oc2c1 (some centres not stated)	upper range
O=C(NO)c1ccc(Cn2ccc3c(NCc4ccccc4)ncnc32)cc1	lower range
COc1cc(CNC(=O)C[C@H](C)CCC=C(C)C)ccc1OCc1cn(-c2ccccc2Cl)nn1	middle range
O=C(COc1ccc(/C=C2/C(=O)Nc3ccc(Cl)cc32)cc1)Nc1ccc(Br)cc1	lower range
